Origin of values: BigSolDB 2.1

Settings: in isobutanol, 285.65 K
measure: solubility (mole fraction)
Keep it simple and answer with nothing but the number.

Exam item: Need solubility (mole fraction) of N=C(Nc1ccccc1)Nc1ccccc1 , thanks.
Marked response: 0.0189

----------
Conditions: in toluene, 298.15 K
measure: solubility (mole fraction)

Exam item: // solubility (mole fraction) lookup, key: N=C(Nc1ccccc1)Nc1ccccc1
Marked response: 0.00432

----------
Conditions: in toluene, 273.15 K
measure: solubility (mole fraction)
Reply briefly: the number, and no unit.

Exam item: If you can, please state the reported solubility (mole fraction) value of N=C(Nc1ccccc1)Nc1ccccc1 .
Marked response: 0.00132

----------
Settings: in n-propanol, 285.65 K
measure: solubility (mole fraction)
In your answer, state the number alone without any accompanying words.

Exam item: What value of solubility (mole fraction) has been reported for the following compound? N=C(Nc1ccccc1)Nc1ccccc1
Marked response: 0.0238
